# experiment_description: UV thermal melting temperatures of TNA 12-mer duplexes
# Format: physicochemical
# condition_context: 1×PBS, relative to unmodified duplex
r = 2'-OH (RNA); f = 2'-fluoro
property_name: ΔTm (° C.)

{"substance": "AD-649415.1 (sense UACAGUCUAUGU; antisense ACAUAGACUGUA; sense: sugars from the 5' end r5 f1 r6, backbone not given here; antisense: sugars from the 5' end r6 f1 r5, backbone not given here)", "val": "1.6 °C"}
{"substance": "AD-64980.2 (sense UACAGUCUAUGU; antisense ACAUAGACUGUA; siRNA; one 2'-fluoro U in sense strand, plain letters not given here, further chemistry not given here)", "val": "0.52 °C"}
{"substance": "AD-649420.1 (sense TACAGTCTATGT; antisense ACATAGACTGTA; chemistry not fully specified)", "val": "−2.5 °C"}
{"substance": "AD-649409.1 (sense UACAGUCUAUGU; antisense ACAUAGACUGUA; chemistry not fully specified)", "val": "−4.9 °C"}
{"substance": "AD-649416.1 (sense UACAGUCUAUGU; antisense ACAUAGACUGUA; sense: RNA, backbone not given here; antisense: sugars from the 5' end r5 f1 r6, backbone not given here)", "val": "2.7 °C"}

====

# experiment_description: UV thermal melting temperatures of TNA 12-mer duplexes
# Type: physicochemical
# condition_context: 1×PBS, relative to unmodified duplex
d = 2'-deoxy (DNA); f = 2'-fluoro
Mark Fulfilled only when ΔTm (° C.) stays strictly below 0.6 °C. Values equal to the cut-off are Not fulfilled.

{"substance": "AD-649423.1 (sense TACAGTCTATGT; antisense ACATAGACTGTA; sense: sugars from the 5' end d6 f1 d5, backbone not given here; antisense: DNA, backbone not given here)", "cat": "Fulfilled"}
{"substance": "AD-649412.1 (sense UACAGUCUAUGU; antisense ACAUAGACUGUA; sense: RNA, backbone not given here; antisense: chemistry not given here; further chemistry not fully specified)", "cat": "Fulfilled"}
{"substance": "AD-649424.1 (sense TACAGTCTATGT; antisense ACATAGACTGTA; sense: DNA, backbone not given here; antisense: sugars from the 5' end d5 f1 d6, backbone not given here)", "cat": "Fulfilled"}
{"substance": "AD-64366.4 (sense UACAGUCUAUGU; antisense ACAUAGACUGUA; RNA, backbone not given here)", "cat": "Fulfilled"}
{"substance": "AD-649417.1 (sense TACAGTCTATGT; antisense ACATAGACTGTA; chemistry not fully specified)", "cat": "Not fulfilled"}

====

# experiment_description: UV thermal melting temperatures of TNA 12-mer duplexes
# Assay type: physicochemical
# condition_context: TNA 12-mer duplexes, 2.0 μM each strand, 1×PBS, pH 7.4
property_name: Tm (° C.) (°C)

{"substance": "AD-649418.1 (sense TACAGTCTATGT; antisense ACATAGACTGTA; sense: chemistry not given here; antisense: DNA, backbone not given here; further chemistry not fully specified)", "val": 40.64}
{"substance": "AD-64366.3 (sense UACAGUCUAUGU; antisense ACAUAGACUGUA; RNA, backbone not given here)", "val": 52.57}
{"substance": "AD-64980.2 (sense UACAGUCUAUGU; antisense ACAUAGACUGUA; siRNA; one 2'-fluoro U in sense strand, plain letters not given here, further chemistry not given here)", "val": 53.14}
{"substance": "AD-649414.1 (sense UACAGUCUAUGU; antisense ACAUAGACUGUA; chemistry not fully specified)", "val": 53.07}
